Measured values drawn from ChEMBL document CHEMBL1125332 for this set.

test system: P388; assay: Cytotoxicity against P388 mouse leukemia cells; format: functional, cell-based
Quick reference: IC50 of the listed items.
The answer is to be given in µg/mL; state only the numeric part.

Please review the entries below; each comes with its answer.
[Q] Write down measured IC50 (P388) for this compound. `Nc1ncnc2c1ncn2[C@@H]1C[C@H](CO)[C@@H](O)[C@H]1O`
[A] 0.5

[Q] Write down measured IC50 (P388) for this compound. Nc1ncnc2c1nnn2C1CC(COS(N)(=O)=O)C(O)C1O (stereo not given)
[A] 0.0625

[Q] Write down measured IC50 (P388) for this compound. Nc1ncnc2c1ncn2C1CC(COS(N)(=O)=O)C(O)C1O (stereo not given)
[A] 0.125

Others:
[Q] Write down measured IC50 (P388) for this compound. `COc1ccc(C[C@H](N)C(=O)N[C@H]2[C@@H](O)[C@H](n3cnc4c(N(C)C)ncnc43)O[C@@H]2CO)cc1`
[A] 0.5

###

system: P388; experiment: Cytotoxicity against P388 mouse leukemia cells; type: functional, cell-based
parameter: IC50

Please review the entries below; each comes with its answer.
[Q] Specify measured IC50 for CSc1ncnc2c1ncn2C1CC(COS(N)(=O)=O)C(O)C1O (centres undefined) .
[A] 50 mg/L

[Q] Specify measured IC50 for CN(C)c1ncnc2c1ncn2C1CC(COS(N)(=O)=O)C(O)C1O (centres undefined) .
[A] 74 mg/L

[Q] Specify measured IC50 for CNc1ncnc2c1ncn2C1CC(COS(N)(=O)=O)C(O)C1O (centres undefined) .
[A] 4 mg/L

Others:
[Q] Specify measured IC50 for Nc1ncnc2c1nnn2C1CC(CO)C(O)C1O (centres undefined) .
[A] 0.5 mg/L
